- Target or system: EGFR (form used in the assay not stated) (human, UniProt P00533 25-645, limits assumed)
- Experiment description: ELISA, NEM conjugate, 500 nM
Attribute measured: binding relative to P54AR4-83v2 parent (ratio)
Respond with the bare value in ratio.

Worked cases, binding relative to P54AR4-83v2 parent given:
Data request: Give the reported value of binding relative to P54AR4-83v2 parent for this record: P54AR4-83v2 I91C, NEM conjugate (designed binder, not shown: small tags and cut ends, N-ethyl maleimide (NEM) on Cys 91) LPAPKNLVVSEVTEDSARLSWDDPWAFYESFLIQYQESEKVGEAIVLTVPGSERSYDLTGLKPGTEYTVSIYGVHNVYKDTNMRGLPLSACFTT
Data returned: 1

Data request: Give the reported value of binding relative to P54AR4-83v2 parent for this record: P54AR4-83v2 P24C, NEM conjugate (designed binder, not shown: small tags and cut ends, N-ethyl maleimide (NEM) on Cys 24) LPAPKNLVVSEVTEDSARLSWDDCWAFYESFLIQYQESEKVGEAIVLTVPGSERSYDLTGLKPGTEYTVSIYGVHNVYKDTNMRGLPLSAIFTT
Data returned: 0.83

Data request: Give the reported value of binding relative to P54AR4-83v2 parent for this record: P54AR4-83v2 F31C, NEM conjugate (designed binder, not shown: small tags and cut ends, N-ethyl maleimide (NEM) on Cys 31) LPAPKNLVVSEVTEDSARLSWDDPWAFYESCLIQYQESEKVGEAIVLTVPGSERSYDLTGLKPGTEYTVSIYGVHNVYKDTNMRGLPLSAIFTT
Data returned: 0.62

Data request: Give the reported value of binding relative to P54AR4-83v2 parent for this record: P54AR4-83v2 S38C, NEM conjugate (designed binder, not shown: small tags and cut ends, N-ethyl maleimide (NEM) on Cys 38) LPAPKNLVVSEVTEDSARLSWDDPWAFYESFLIQYQECEKVGEAIVLTVPGSERSYDLTGLKPGTEYTVSIYGVHNVYKDTNMRGLPLSAIFTT
Data returned: 0.82

Data request: Give the reported value of binding relative to P54AR4-83v2 parent for this record: P54AR4-83v2 F27C, NEM conjugate (designed binder, not shown: small tags and cut ends, N-ethyl maleimide (NEM) on Cys 27) LPAPKNLVVSEVTEDSARLSWDDPWACYESFLIQYQESEKVGEAIVLTVPGSERSYDLTGLKPGTEYTVSIYGVHNVYKDTNMRGLPLSAIFTT
Data returned: 0.23

Data request: Give the reported value of binding relative to P54AR4-83v2 parent for this record: P54AR4-83v2 S55C, NEM conjugate (designed binder, not shown: small tags and cut ends, N-ethyl maleimide (NEM) on Cys 55) LPAPKNLVVSEVTEDSARLSWDDPWAFYESFLIQYQESEKVGEAIVLTVPGSERCYDLTGLKPGTEYTVSIYGVHNVYKDTNMRGLPLSAIFTT
Data returned: 0.11

Data request: Give the reported value of binding relative to P54AR4-83v2 parent for this record: P54AR4-83v2 D23C, NEM conjugate (designed binder, not shown: small tags and cut ends, N-ethyl maleimide (NEM) on Cys 23) LPAPKNLVVSEVTEDSARLSWDCPWAFYESFLIQYQESEKVGEAIVLTVPGSERSYDLTGLKPGTEYTVSIYGVHNVYKDTNMRGLPLSAIFTT
Data returned: 0.4

Data request: Give the reported value of binding relative to P54AR4-83v2 parent for this record: P54AR4-83v2 H75C, NEM conjugate (designed binder, not shown: small tags and cut ends, N-ethyl maleimide (NEM) on Cys 75) LPAPKNLVVSEVTEDSARLSWDDPWAFYESFLIQYQESEKVGEAIVLTVPGSERSYDLTGLKPGTEYTVSIYGVCNVYKDTNMRGLPLSAIFTT
Data returned: 0.25

Data request: Give the reported value of binding relative to P54AR4-83v2 parent for this record: P54AR4-83v2 T48C, NEM conjugate (designed binder, not shown: small tags and cut ends, N-ethyl maleimide (NEM) on Cys 48) LPAPKNLVVSEVTEDSARLSWDDPWAFYESFLIQYQESEKVGEAIVLCVPGSERSYDLTGLKPGTEYTVSIYGVHNVYKDTNMRGLPLSAIFTT
Data returned: 0.93

Data request: Give the reported value of binding relative to P54AR4-83v2 parent for this record: P54AR4-83v2 G85C, NEM conjugate (designed binder, not shown: small tags and cut ends, N-ethyl maleimide (NEM) on Cys 85) LPAPKNLVVSEVTEDSARLSWDDPWAFYESFLIQYQESEKVGEAIVLTVPGSERSYDLTGLKPGTEYTVSIYGVHNVYKDTNMRCLPLSAIFTT
Data returned: 0.29

New cases:
Data request: Give the reported value of binding relative to P54AR4-83v2 parent for this record: P54AR4-83v2 D22C, NEM conjugate (designed binder, not shown: small tags and cut ends, N-ethyl maleimide (NEM) on Cys 22) LPAPKNLVVSEVTEDSARLSWCDPWAFYESFLIQYQESEKVGEAIVLTVPGSERSYDLTGLKPGTEYTVSIYGVHNVYKDTNMRGLPLSAIFTT
Data returned: 0.9

Data request: Give the reported value of binding relative to P54AR4-83v2 parent for this record: P54AR4-83v2 E14C, NEM conjugate (designed binder, not shown: small tags and cut ends, N-ethyl maleimide (NEM) on Cys 14) LPAPKNLVVSEVTCDSARLSWDDPWAFYESFLIQYQESEKVGEAIVLTVPGSERSYDLTGLKPGTEYTVSIYGVHNVYKDTNMRGLPLSAIFTT
Data returned: 1.15

Data request: Give the reported value of binding relative to P54AR4-83v2 parent for this record: P54AR4-83v2 V49C, NEM conjugate (designed binder, not shown: small tags and cut ends, N-ethyl maleimide (NEM) on Cys 49) LPAPKNLVVSEVTEDSARLSWDDPWAFYESFLIQYQESEKVGEAIVLTCPGSERSYDLTGLKPGTEYTVSIYGVHNVYKDTNMRGLPLSAIFTT
Data returned: 0.98
